Where do these numbers come from? They come from patent US9556179B2.

Counter-ions that a name gives are not always drawn.
Please consider the recorded IC50 for UniProtKB P48730 in what follows.

Worked examples follow.
Compound: O=C(Nc1cn2nc(-c3c(-c4ccc(F)cc4)ncn3CCN3CCOCC3)ccc2n1)c1cccc(-c2cccnc2)c1
IC50: 0.104 nM

Compound: O=C(Nc1cn2nc(-c3c(-c4ccc(F)cc4)nc4n3CCN(C(=O)C3CC3)C4)ccc2n1)c1ccnc(F)c1
IC50: 2.3 nM

Compound: Cc1nn(C)cc1CN1CCC(n2cnc(-c3ccc(F)cc3)c2-c2ccc3nc(NC(=O)c4ccnc(F)c4)cn3n2)CC1
IC50: 0.17 nM

For every item in the list below, what is its measured IC50?
1. O=C(Nc1cn2nc(-c3c(-c4ccc(F)cc4)ncn3C3CCNCC3)ccc2n1)c1ccnc(F)c1
2. Cc1nc(-c2ccc(F)cc2)c(-c2ccc3nc(NC(=O)c4ccc(F)nc4)cn3n2)n1C
3. O=C(Nc1cn2nc(-c3c(-c4ccc(F)cc4)nc(C4CC4)n3C3CCN(C4COC4)CC3)ccc2n1)c1ccnc(F)c1
4. COc1ccc(-c2nc(C(=O)Nc3cn4nc(-c5c(-c6ccc(F)cc6)nc6ccccn56)ccc4n3)cs2)cc1 [Compound 189, HCl]

Reply:
0.92 nM
0.152 nM
1.7 nM
17.1 nM

For every item in the list below, what is its measured IC50?
1. O=C(Nc1cn2nc(-c3c(-c4ccc(F)cc4)nc4n3CCOC4)ccc2n1)c1ccncc1
2. O=C(Nc1cn2nc(-c3c(-c4ccc(F)cc4)ncn3C3CCOCC3)ccc2n1)c1cc(F)nc(F)c1
3. N#CCCN1CCC(n2c(C3CC3)nc(-c3ccc(F)cc3)c2-c2ccc3nc(NC(=O)c4cccc(-c5cccnc5)c4)cn3n2)CC1
4. CNc1ccc2nc(-c3ccc(F)cc3)c(-c3ccc4nc(NC(=O)c5ccncc5)cn4n3)n2n1

Reply:
0.4 nM
0.2 nM
0.514 nM
2.82 nM

----------
Please consider the recorded pIC50 for UniProt:P48730 in what follows.
Answers are plain numbers, as −log10 of the molar value.

Structure: CC(C)c1nc(-c2ccc(F)cc2)c(-c2ccc3nc(NC(=O)c4ccnc(F)c4)cn3n2)n1CC(F)F
pIC50: 9.11

Structure: O=C(Nc1cn2nc(-c3c(-c4ccc(F)cc4)nc4n3CCCC4)ccc2n1)c1ccnc(N2CCOCC2)c1
pIC50: 9.40

Structure: O=C(Nc1cn2nc(-c3c(-c4ccc(F)cc4)nc4n3CCC4)ccc2n1)c1ccnc(F)c1
pIC50: 9.40

Structure: Cc1nc(-c2ccc(F)cc2)c(-c2ccc3nc(NC(=O)c4ccnc(N5CCOCC5)c4)cn3n2)n1C
pIC50: 9.46

Ask: Returns the measured pIC50 for the input compound. Input: Cc1nc(-c2cccnc2)sc1C(=O)Nc1cn2nc(-c3c(-c4ccc(F)cc4)ncn3C3CCN(C(=O)c4ccon4)CC3)ccc2n1
Reply: 9.48

----------
Please consider the recorded IC50 for CK1δ (Homo sapiens (Human), UniProt P48730) in what follows.
Give bare numbers, in nM.

Compound: Cc1nc(-c2ccc(F)cc2)c(-c2ccc3nc(NC(=O)c4cn[nH]c4)cn3n2)n1C [Compound 364]
Recorded Result: 0.566

Compound: O=C(Nc1cn2nc(-c3c(-c4ccc(F)cc4)nc4ccccn34)ccc2n1)C1CCN(c2ccncc2)CC1 [Compound 217]
Recorded Result: 0.833

From here, focus on the item given below.
Ask: Returns the measured IC50 for the input compound. Input: Cc1nc(-c2ccc(Cl)cc2)c(-c2ccc3nc(NC(=O)c4ccnc(F)c4)cn3n2)n1CC(F)(F)F [Compound 295]
Reply: 0.126
